// values below are reported IC50
- TARGET_OR_TEST_SYSTEM: Avi-KRAS G12R (1-169) GppNHp/RAF1 RBD-3xFLAG (52-151) (Homo sapiens, UniProt P01116, G12R)
- Construct: Avi-KRAS G12R (1-169)
- Sequence (P01116 1-169 isoform P01116-2 G12R): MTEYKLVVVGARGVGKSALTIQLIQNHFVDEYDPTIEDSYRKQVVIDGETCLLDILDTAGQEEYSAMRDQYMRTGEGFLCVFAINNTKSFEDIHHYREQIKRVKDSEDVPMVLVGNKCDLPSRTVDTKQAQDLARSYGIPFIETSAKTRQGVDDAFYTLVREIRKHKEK
- PROTOCOL_DESCRIPTION: Raf1-KRAS G12R-GppNHP disruption HTRF assay (Biological Example 1)
- Assay type: binding
- CONDITION_DESCRIPTION: KRAS G12R, GppNHp-loaded; class symbols

COMPOUND: CCN(c1nc(OC[C@@]23CCCN2C[C@H](F)C3)nc2c(F)c(-c3ccc(F)c4sc(N)c(C#N)c34)c(C(F)(F)F)cc12)[C@H]1CCN(C(=O)[C@@H]2C[C@@H]2F)C1 (atropisomer, axis not shown) [Compound 691]
TARGET_OR_TEST_SYSTEM: Avi-KRAS G12R (1-169) GppNHp/RAF1 RBD-3xFLAG (52-151) (Homo sapiens, UniProt P01116, G12R)
IC50: < 100 nM

With those in mind, consider the next compound.
Given the compound CCN(c1nc(OC[C@@]23CCCN2C[C@H](F)C3)nc2c(F)c(-c3ccc(F)c4sc(N)c(C#N)c34)c(C(F)(F)F)cc12)[C@H]1CCN(C(=O)c2ncc(C)o2)C1 (atropisomer, axis not shown) [Compound 803] , what is its reported IC50?
100 to 1000 nM

====

- TARGET_OR_TEST_SYSTEM: Avi-KRAS G12V (1-169) GppNHp/RAF1 RBD-3xFLAG (52-151) (Homo sapiens, UniProt P01116, G12V)
- Construct: Avi-KRAS G12V (1-169)
- Sequence (P01116 1-169 isoform P01116-2 G12V): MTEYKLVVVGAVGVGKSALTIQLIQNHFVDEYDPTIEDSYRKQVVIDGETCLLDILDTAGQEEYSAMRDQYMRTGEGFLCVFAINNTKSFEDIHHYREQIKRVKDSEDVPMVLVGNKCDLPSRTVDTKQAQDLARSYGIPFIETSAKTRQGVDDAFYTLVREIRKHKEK
- PROTOCOL_DESCRIPTION: Raf1-KRAS G12V-GppNHP disruption HTRF assay (Biological Example 1)
- Format: binding
- CONDITION_DESCRIPTION: KRAS G12V, GppNHp-loaded; Table 11
pIC50: −log10 of the molar value.
Quick reference for pIC50 among some molecules

# lookup: pIC50 of N#Cc1c(N)sc2c(F)ccc(-c3c(C(F)(F)F)cc4c(N5CCCOCC5)nc(OC[C@@]56CCCN5C[C@H](F)C6)nc4c3F)c12 [Compound 232]
6.00 to 7.00

Return reported pIC50; argument: CN(c1nc(OC[C@@]23CCCN2C[C@H](F)C3)nc2cc(-c3ccc(F)c4sc(N)c(C#N)c34)c(C#N)cc12)[C@H]1C[C@@H](O)C1 [Compound 29]
5.00 to 6.00

If you can, please state the reported pIC50 value of CN(c1nc(OC[C@@]23CCCN2C[C@H](F)C3)nc2c(F)c(-c3ccc(F)c4sc(N)c(C#N)c34)c(C(F)(F)F)cc12)[C@]1(CC#N)C[C@@H](O)C1 (atropisomer, axis not shown) [Compound 254] .
5.00 to 6.00

Give its pIC50 value. Item: CC(=O)N(C)[C@H]1CCN(c2nc(OC[C@@]34CCCN3C[C@H](F)C4)nc3c(F)c(-c4ccc(F)c5sc(N)c(C#N)c45)c(C(F)(F)F)cc23)C1 [Compound 206]
5.00 to 6.00

Item under review: N#Cc1c(N)sc2c(F)ccc(-c3c(C(F)(F)F)cc4c(N5CCOCC5)nc(OC[C@@]56CCCN5C[C@H](F)C6)nc4c3F)c12 (single isomer, unassigned) [Compound 199] . Reported pIC50?
< 5.00

Need pIC50 of Nc1nc2c(-c3c(C(F)(F)F)cc4c(N[C@H]5CC[C@H](O)C5)nc(OCC56CCCN5CCC6)nc4c3F)ccc(F)c2s1 (atropisomer, axis not shown) [Compound 61] , thanks.
< 5.00

Can you share its pIC50? I mean this molecule: C[C@H]1[C@@H](N(C)c2nc(OC[C@@]34CCCN3C[C@H](F)C4)nc3c(F)c(-c4ccc(F)c5sc(N)c(C#N)c45)c(C(F)(F)F)cc23)CCN1C(=O)CO [Compound 240]
5.00 to 6.00

Can you look up the measured pIC50 of CO[C@H]1C[C@@H](N(C)c2nc(OC[C@@]34CCCN3C[C@H](F)C4)nc3c(F)c(-c4ccc(F)c5sc(N)c(C#N)c45)c(C(F)(F)F)cc23)C1 [Compound 27] for me?
5.00 to 6.00

Form field: reported pIC50 of N#Cc1c(N)sc2c(F)ccc(-c3c(C(F)(F)F)cc4c(N5CCN(CCO)C(=O)C5)nc(OC[C@@]56CCCN5C[C@H](F)C6)nc4c3F)c12 [Compound 121]
6.00 to 7.00

Entry under review: N#CCC[C@H]1CCN(c2nc(OC[C@@]34CCCN3C[C@H](F)C4)nc3c(F)c(-c4ccc(F)c5sc(N)c(C#N)c45)c(C(F)(F)F)cc23)C1 [Compound 214] . Reported pIC50?
5.00 to 6.00

Entry under review: CCCN(C)c1nc(OC[C@@]23CCCN2C[C@H](F)C3)nc2c(F)c(-c3ccc(F)c4sc(N)c(C#N)c34)c(C(F)(F)F)cc12 [Compound 120] . Reported pIC50?
6.00 to 7.00
